Quick list: TGI per entry.
Test system: NCI-H522 lung
Experiment: NCI tumour cell line growth inhibition, 48 h
ATTRIBUTE_MEASURED: TGI (µM)

>  <COMPOUND>
COc1cc2c(cc1OCc1ccccc1)NC(=O)[C@@H]1CCCN1C2=O

>  <UNIT_DESCRIPTOR>
µM

>  <COMPARISON_SIGN>
>

>  <VALUE_MEASURED>
100

$$$$
>  <COMPOUND>
CCOC(=O)[C@@H](Cc1ccc(CCl)cc1)NC(C)=O

>  <UNIT_DESCRIPTOR>
µM

>  <COMPARISON_SIGN>
=

>  <VALUE_MEASURED>
35.5

$$$$
>  <COMPOUND>
CCN(Cc1c(F)cccc1Cl)c1ccc(CO)c(Cl)c1

>  <UNIT_DESCRIPTOR>
µM

>  <COMPARISON_SIGN>
=

>  <VALUE_MEASURED>
28.5

$$$$
>  <COMPOUND>
O=C(/C=C/C12c3ccccc3C(c3ccccc31)C1C(=O)NC(=O)C12)c1ccccc1 (stereo not given)

>  <UNIT_DESCRIPTOR>
µM

>  <COMPARISON_SIGN>
=

>  <VALUE_MEASURED>
3.69

$$$$
>  <COMPOUND>
O=C1NC(c2ccccc2)C2(C(=O)O)CN(C3CC3)c3cc(N4CCNCC4)c(F)cc3C2N1 (stereo not given)

>  <UNIT_DESCRIPTOR>
µM

>  <COMPARISON_SIGN>
>

>  <VALUE_MEASURED>
100

$$$$

* * *

Test system: TK-10 renal
Assay: NCI tumour cell line growth inhibition, 48 h

>  <MOLECULE>
NC(=O)c1ccc[n+](C2=C([O-])c3ccccc3C(=O)/C2=N\S(=O)(=O)c2ccccc2)c1

>  <TGI>
> 100 µM

$$$$
>  <MOLECULE>
COC(=O)N/N=C(\C)CC(=O)Nc1ccc(Cl)cc1

>  <TGI>
> 100 µM

$$$$
>  <MOLECULE>
c1cncc(CSc2nc3ccccc3nc2-c2cccs2)c1

>  <TGI>
> 100 µM

$$$$
>  <MOLECULE>
C=C1[C@@H]2CCC3[C@]4(C)C(CC[C@@]5(C)C(=O)O[C@H](O)[C@@H]45)[C@H](O)[C@]3(C2)[C@H]1OC1OC(CO)C(O)C(O)C1O (some centres undefined)

>  <TGI>
> 50 µM

$$$$
>  <MOLECULE>
CCOC(=O)c1c(SCc2cc(=O)[nH]c(=O)[nH]2)n(-c2ccccc2)c(=S)n(-c2ccccc2)c1=O

>  <TGI>
> 100 µM

$$$$
>  <MOLECULE>
CC[C@H](NC(=O)OC(C)(C)C)C(=O)NCP(=O)(OCc1ccc([N+](=O)[O-])cc1)OCc1ccc([N+](=O)[O-])cc1

>  <TGI>
> 100 µM

$$$$
>  <MOLECULE>
CCN(CC)CCCCNc1c2ccc(Cl)cc2nc2ccc(OC)cc12

>  <TGI>
4.59 µM

$$$$
>  <MOLECULE>
CCCCN(CCCC)CC(C(C)=O)C(c1ccccc1)c1c(O)c2ccccc2oc1=O (centres undefined)

>  <TGI>
> 100 µM

$$$$
>  <MOLECULE>
COC(=O)N[C@H]1CCc2c(Cl)c(OC)c(OC)c(OC)c2-c2ccc(SC)c(=O)cc21

>  <TGI>
> 100 µM

$$$$

Just for reference, PubChem BioAssay (NCI) is where these values come from.
